molecular target: Neuronal acetylcholine receptor subunit alpha-7 (Rattus norvegicus) (UniProt Q05941); assay: Displacement of [3H]MLA from alpha-7 nAChR in rat brain membrane at 100 uM; type: cell membranes
Sequence (Q05941 whole entry): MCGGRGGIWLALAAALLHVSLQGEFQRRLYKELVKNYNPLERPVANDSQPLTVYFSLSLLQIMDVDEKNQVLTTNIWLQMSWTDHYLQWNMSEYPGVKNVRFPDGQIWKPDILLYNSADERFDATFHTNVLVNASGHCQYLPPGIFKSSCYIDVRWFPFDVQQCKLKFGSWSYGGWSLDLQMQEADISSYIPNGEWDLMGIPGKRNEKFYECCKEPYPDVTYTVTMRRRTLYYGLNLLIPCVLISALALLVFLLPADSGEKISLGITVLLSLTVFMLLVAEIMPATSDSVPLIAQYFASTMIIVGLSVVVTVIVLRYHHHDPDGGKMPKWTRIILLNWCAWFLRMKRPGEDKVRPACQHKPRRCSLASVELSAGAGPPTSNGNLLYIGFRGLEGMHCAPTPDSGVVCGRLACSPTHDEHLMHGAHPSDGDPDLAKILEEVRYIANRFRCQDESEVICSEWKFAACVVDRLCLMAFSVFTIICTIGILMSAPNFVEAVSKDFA
Would you mind telling me the reported inhibition of each entry?

Before answering, review these 3 worked examples.
- smiles.string: "c1ccc2c(c1)ccc[n+]2CCCCCc1cc(CCCCC[n+]2cccc3ccccc32)cc(CCCCC[n+]2cccc3ccccc32)c1"
  inhibition: "6.8%"
- smiles.string: "Cc1ccc[n+](CCCC#Cc2cc(C#CCCC[n+]3cccc(C)c3)cc(C#CCCC[n+]3cccc(C)c3)c2)c1.[Br-].[Br-].[Br-]"
  inhibition: "0%"
- smiles.string: "Cc1cc[n+](CCCCCc2cc(CCCCC[n+]3ccc(C)c(C)c3)cc(CCCCC[n+]3ccc(C)c(C)c3)c2)cc1C"
  inhibition: "0.2%"

# evaluate next
Data request: Provide measured inhibition on Neuronal acetylcholine receptor subunit alpha-7 (Rattus norvegicus) (UniProt Q05941) for `C(#Cc1cc(C#CCCC[n+]2cccc3ccccc32)cc(C#CCCC[n+]2cccc3ccccc32)c1)CCC[n+]1cccc2ccccc21` please.
Data returned: 21%

---

molecular target: Neuronal acetylcholine receptor subunit alpha-7 (Rattus norvegicus) (UniProt Q05941); assay: Displacement of [3H]MLA from alpha-7 nAChR in rat brain membrane at 100 uM; assay type: cell membranes
Classification field: Y = inhibition at or over 4%; N = inhibition under 4%.

- smiles.string: "Cc1cc[n+](CCCCCc2cc(CCCCC[n+]3ccc(C)cc3)cc(CCCCC[n+]3ccc(C)cc3)c2)cc1"
  assigned.class: "N"
- smiles.string: "C(#Cc1cc(C#CCCC[n+]2ccc3ccccc3c2)cc(C#CCCC[n+]2ccc3ccccc3c2)c1)CCC[n+]1ccc2ccccc2c1"
  assigned.class: "Y"
- smiles.string: "Cc1cc(C)c[n+](CCCC#Cc2cc(C#CCCC[n+]3cc(C)cc(C)c3)cc(C#CCCC[n+]3cc(C)cc(C)c3)c2)c1"
  assigned.class: "N"
- smiles.string: "CCCCc1ccc[n+](CCCC#Cc2cc(C#CCCC[n+]3cccc(CCCC)c3)cc(C#CCCC[n+]3cccc(CCCC)c3)c2)c1"
  assigned.class: "Y"
- smiles.string: "C(#Cc1cc(C#CCCC[n+]2cccc(-c3ccccc3)c2)cc(C#CCCC[n+]2cccc(-c3ccccc3)c2)c1)CCC[n+]1cccc(-c2ccccc2)c1"
  assigned.class: "Y"
- smiles.string: "Cc1cc(C)c[n+](CCCCCc2cc(CCCCC[n+]3cc(C)cc(C)c3)cc(CCCCC[n+]3cc(C)cc(C)c3)c2)c1"
  assigned.class: "Y"

Let's switch to this molecule now.
Data request: For this molecule, is measured inhibition 4% or higher? `Cc1cccc[n+]1CCCCCc1cc(CCCCC[n+]2ccccc2C)cc(CCCCC[n+]2ccccc2C)c1`
Data returned: N

---

molecular target: Neuronal acetylcholine receptor; alpha4/beta2 (Rattus norvegicus) (UniProt P09483+P12390); test: Displacement of [3H]NIC from alpha-4-beta-2 nAChR in rat brain membrane at 100 uM; assay type: cell membranes
Provide the recorded inhibition for the entries that follow.
Numbers only, in %.

Guide cases for inhibition, answers given:
- smiles.string: "C(#Cc1cc(C#CCCC[n+]2ccc3ccccc3c2)cc(C#CCCC[n+]2ccc3ccccc3c2)c1)CCC[n+]1ccc2ccccc2c1"
  units.label: "%"
  inhibition: 9.2
- smiles.string: "Cc1cccc[n+]1CCCC#Cc1cc(C#CCCC[n+]2ccccc2C)cc(C#CCCC[n+]2ccccc2C)c1.[Br-].[Br-].[Br-]"
  units.label: "%"
  inhibition: 4.5

Lab note: each compound below needs its inhibition filled in.
1. CN1CCC[C@H]1c1ccc[n+](CCCC#Cc2cc(C#CCCC[n+]3cccc([C@@H]4CCCN4C)c3)cc(C#CCCC[n+]3cccc([C@@H]4CCCN4C)c3)c2)c1.[Br-].[Br-].[Br-]
2. Cc1cc[n+](CCCC#Cc2cc(C#CCCC[n+]3ccc(C)cc3)cc(C#CCCC[n+]3ccc(C)cc3)c2)cc1
3. Cc1cccc[n+]1CCCCCc1cc(CCCCC[n+]2ccccc2C)cc(CCCCC[n+]2ccccc2C)c1

Data returned:
[44, 21, 8.6]

State the recorded inhibition for every item in the following list.
1. Cc1cc(C)c[n+](CCCC#Cc2cc(C#CCCC[n+]3cc(C)cc(C)c3)cc(C#CCCC[n+]3cc(C)cc(C)c3)c2)c1
2. Cc1cc(C)c[n+](CCCCCc2cc(CCCCC[n+]3cc(C)cc(C)c3)cc(CCCCC[n+]3cc(C)cc(C)c3)c2)c1

Data returned:
[8.9, 11]
